Listed next: entries and their corresponding Log2 FC.
Tested on: type D HBV core antigen (HBcAg) reporter cell line
method: sgRNA lentiviral library screening, HBcAg reporter cell line (NGS reads in GFP-negative cells)
Assay type: cell-based
run_conditions: sgRNA in GFP-negative cell population, day 14 after transfection of EPIREG
Enter the number alone.

Solved entries:
substance	reported_value
161 (guide AGATTAAAGGTCTTTGTACT; listed as DNA, chemistry not fully specified) [compound 161]	2.5156
483 (guide CGCCCCGTGGTCGGTCGGAA; listed as DNA, chemistry not fully specified) [compound 483]	4.8386
792 (guide GGTCTGGAGCAAACATTATC; listed as DNA, chemistry not fully specified) [compound 792]	2.103
825 (guide GTCCCAAGCGACCCCGAGAA; listed as DNA, chemistry not fully specified) [compound 825]	3.3064
1065 (guide TGGTCGGTCGGAACGGCAGA; listed as DNA, chemistry not fully specified) [compound 1065]	2.8985

Now take the following substance into account.
According to the records, this substance 658 (guide GCAAATATACATCGTATCCA; listed as DNA, chemistry not fully specified) [compound 658] displays Log2 FC of 2.2171

----------
Tested on: type D HBV surface antigen (HBsAg) reporter cell line
method: sgRNA lentiviral library screening, HBsAg reporter cell line (NGS reads in GFP-negative cells)
Format: cell-based
run_conditions: sgRNA in GFP-negative cell population, day 14 after transfection of EPIREG
From the text: In this example, the type D HBV X protein (HBx), core antigen (HBcAg), and surface antigen (HBsAg) reporter cell lines were used for library screening. […] The sgRNA library was packaged into lentivirus to obtain a sgRNA lentiviral library (carrying red fluorescence), the reporter cell line was infected with the lentiviral library, and the red fluorescence was sorted to obtain the sgRNA cell library. […]
Simple rule here: Log2 FC less than 1 is class 1, otherwise class 0.

substance	assigned_category
112 (guide ACCTTTGGATAAAACCTAGC; listed as DNA, chemistry not fully specified) [compound 112]	class 0
810 (guide GTAAAGAGAGGTGCGCCCCG; listed as DNA, chemistry not fully specified) [compound 810]	class 0
121 (guide ACTACTGTTGTTAGACGACG; listed as DNA, chemistry not fully specified) [compound 121]	class 0
598 (guide GACATGAACAAGAGATGATT; listed as DNA, chemistry not fully specified) [compound 598]	class 0
150 (guide AGAGAGGTGCGCCCCGTGGT; listed as DNA, chemistry not fully specified) [compound 150]	class 0

Now take the following substance into account.
State whether 1 exceeds Log2 FC recorded for 829 (guide GTCCTCTTATGTAAGACCTT; listed as DNA, chemistry not fully specified) [compound 829] . class 1

----------
Tested on: type D HBV X protein (HBx) reporter cell line
method: sgRNA lentiviral library screening, HBx reporter cell line (NGS reads in GFP-negative cells)
Format: cell-based
run_conditions: sgRNA in GFP-negative cell population, day 14 after transfection of EPIREG
reported_endpoint: Log2 FC

Solved entries:
substance	Log2 FC
211 (guide AGTCCCAAGCGACCCCGAGA; listed as DNA, chemistry not fully specified) [compound 211]	4.6655
200 (guide AGGTGCGCCCCGTGGTCGGT; listed as DNA, chemistry not fully specified) [compound 200]	7.535
127 (guide ACTGGCTGGGGCTTGGTCAT; listed as DNA, chemistry not fully specified) [compound 127]	7.231
1033 (guide TGCGAGCAAAACAAGCGGCT; listed as DNA, chemistry not fully specified) [compound 1033]	3.1795
788 (guide GGGTTGCGTCAGCAAACACT; listed as DNA, chemistry not fully specified) [compound 788]	4.4031

Now take the following substance into account.
According to the records, this substance 327 (guide CACTGGCTGGGGCTTGGTCA; listed as DNA, chemistry not fully specified) [compound 327] displays Log2 FC of 5.8386

----------
Test system: type D HBV X protein (HBx) reporter cell line
method: sgRNA lentiviral library screening, HBx reporter cell line (NGS reads in GFP-negative cells)
Type: cell-based
run_conditions: sgRNA in GFP-negative cell population, day 14 after transfection of EPIREG
Simple rule here: Log2 FC less than 6 is met, otherwise not met.

substance	assigned_category
496 (guide CGGCTAGGAGTTCCGCAGTA; listed as DNA, chemistry not fully specified) [compound 496]	not met
467 (guide CGACCCTTCTCGGGGTCGCT; listed as DNA, chemistry not fully specified) [compound 467]	met
506 (guide CGTCCCGCGCAGGATCCAGT; listed as DNA, chemistry not fully specified) [compound 506]	met
669 (guide GCAGATGAGAAGGCACAGAC; listed as DNA, chemistry not fully specified) [compound 669]	met
254 (guide ATGGATACGATGTATATTTG; listed as DNA, chemistry not fully specified) [compound 254]	met

State whether 6 exceeds Log2 FC recorded for 774 (guide GGGGCGCACCTCTCTTTACG; listed as DNA, chemistry not fully specified) [compound 774] . met

State whether 6 exceeds Log2 FC recorded for 1006 (guide TGACCAAGCCCCAGCCAGTG; listed as DNA, chemistry not fully specified) [compound 1006] . not met

State whether 6 exceeds Log2 FC recorded for 650 (guide GATTGAATACATGCATACAA; listed as DNA, chemistry not fully specified) [compound 650] . met

State whether 6 exceeds Log2 FC recorded for 762 (guide GGGCAACGGGGTAAAGGTTC; listed as DNA, chemistry not fully specified) [compound 762] . met

State whether 6 exceeds Log2 FC recorded for 591 (guide GAAGCGAAGTGCACACGGTC; listed as DNA, chemistry not fully specified) [compound 591] . met

State whether 6 exceeds Log2 FC recorded for 483 (guide CGCCCCGTGGTCGGTCGGAA; listed as DNA, chemistry not fully specified) [compound 483] . not met

State whether 6 exceeds Log2 FC recorded for 204 (guide AGGTTCCACGCACGCGCTGA; listed as DNA, chemistry not fully specified) [compound 204] . met

----------
Tested on: type D HBV core antigen (HBcAg) reporter cell line
method: sgRNA lentiviral library screening, HBcAg reporter cell line (NGS reads in GFP-negative cells)
Assay type: cell-based
run_conditions: sgRNA in GFP-negative cell population, day 14 after transfection of EPIREG
# binarize Log2 FC: threshold 3 inclusive, high side condition met, low side condition not met

substance	assigned_category
88 (guide ACATCGTATCCATGGCTGCT; listed as DNA, chemistry not fully specified) [compound 88]	condition met
1008 (guide TGACGCAACCCCCACTGGCT; listed as DNA, chemistry not fully specified) [compound 1008]	condition not met
1068 (guide TGGTGAGGTGAACAATGCTC; listed as DNA, chemistry not fully specified) [compound 1068]	condition not met

Identify whether the reported Log2 FC of the following substance is 3 or greater: 1132 (guide TTTACCCCGTTGCCCGGCAA; listed as DNA, chemistry not fully specified) [compound 1132] condition not met

Identify whether the reported Log2 FC of the following substance is 3 or greater: 145 (guide AGACTGGGAGGAGTTGGGGG; listed as DNA, chemistry not fully specified) [compound 145] condition met

Identify whether the reported Log2 FC of the following substance is 3 or greater: 958 (guide TCCTGCGGACGACCCTTCTC; listed as DNA, chemistry not fully specified) [compound 958] condition met

----------
Test system: type D HBV core antigen (HBcAg) reporter cell line
method: sgRNA lentiviral library screening, HBcAg reporter cell line (NGS reads in GFP-negative cells)
Type: cell-based
run_conditions: sgRNA in GFP-negative cell population, day 14 after transfection of EPIREG
Simple rule here: Log2 FC less than 3 is yes, otherwise no.

A selection of reference data follows.
substance	tested_target	assigned_category
81 (guide ACACGGTCCGGCAGATGAGA; listed as DNA, chemistry not fully specified) [compound 81]	type D HBV core antigen (HBcAg) reporter cell line	yes
305 (guide CACAGAAAGGCCTTGTAAGT; listed as DNA, chemistry not fully specified) [compound 305]	type D HBV core antigen (HBcAg) reporter cell line	yes
496 (guide CGGCTAGGAGTTCCGCAGTA; listed as DNA, chemistry not fully specified) [compound 496]	type D HBV core antigen (HBcAg) reporter cell line	yes

State whether 3 exceeds Log2 FC recorded for 669 (guide GCAGATGAGAAGGCACAGAC; listed as DNA, chemistry not fully specified) [compound 669] . no

State whether 3 exceeds Log2 FC recorded for 249 (guide ATGACCAAGCCCCAGCCAGT; listed as DNA, chemistry not fully specified) [compound 249] . yes

State whether 3 exceeds Log2 FC recorded for 139 (guide AGACACCAAATACTCTATAA; listed as DNA, chemistry not fully specified) [compound 139] . yes

State whether 3 exceeds Log2 FC recorded for 427 (guide CCGCAGGATTCAGCGCCGAC; listed as DNA, chemistry not fully specified) [compound 427] . no

State whether 3 exceeds Log2 FC recorded for 560 (guide CTGTGCCTTGGGTGGCTTTG; listed as DNA, chemistry not fully specified) [compound 560] . yes
